Assay: Foaming test
Format: physicochemical
Conditions: about one tenth of CMC in water, shaken with air; Passed/Failed
Procedure: A foaming test was performed by dissolving the test compound in water at a concentration of approximately one tenth of the CMC of the test compound. The solution was then placed in a stoppered vessel with air and shaken and a visual observation made as to whether a stable foam had been formed.
observedProperty: Foaming test

CCCCCCCCCCCC(=O)N[C@@H](CS)C(=O)O ... Passed
CCCCCCCCNC(=O)N[C@@H](CSSC[C@H](NC(=O)NCCCCCCCC)C(=O)O)C(=O)O [D-octyl isocyanate cystine] ... Failed
CCCCCCCC(=O)N[C@@H](CS)C(=O)O ... Passed
CCCCCCCCSC[C@H](N)C(=O)O [S-octyl cysteine, reference compound] ... Failed
